Reported values of Residual weight % at different temperatures for individual entries
Assay: Thermal stability by Thermogravimetric Analysis (TGA)
Type: physicochemical
Conditions: 250 (° C.)
value.type: Residual weight % at different temperatures (w %)

[[record]]
compound = "CCOC(=O)CNC1=C/C(=N/c2ccc(C(C)=O)cc2)CC(C)(C)C1"
quantitative_result = 65.1

[[record]]
compound = "CCOC(=O)C1CSC2=C(CC(C)(C)C/C2=N\\c2ccc(Oc3ccccc3)cc2)N1 (stereo not shown)"
quantitative_result = 62.1

[[record]]
compound = "CCOC(=O)CNC1=C/C(=N/c2ccc(OC(F)(F)F)cc2)CC(C)(C)C1"
quantitative_result = 40.5

[[record]]
compound = "COC(=O)C(Cc1ccccc1)NC1=C/C(=N/c2ccc(OC)cc2)CC(C)(C)C1 (stereo not shown)"
quantitative_result = 75.0


* * *

Experiment: Thermal stability by Thermogravimetric Analysis (TGA)
Type: physicochemical
Settings: 250 (° C.)
Reported values of Residual weight % at different temperatures for individual entries
value.type: Residual weight % at different temperatures

[[record]]
compound = "CCOC(=O)CNC1=C/C(=N/c2ccc3c(c2)OCCO3)CC(C)(C)C1"
result = "68.0 w %"

[[record]]
compound = "CCOC(=O)CNC1=C/C(=N/c2ccc(Oc3ccccc3)cc2)CC(C)(C)C1"
result = "69.3 w %"

[[record]]
compound = "CCOC(=O)CNC1=C/C(=N/c2ccc(N3CCOCC3)cc2)CC(C)(C)C1"
result = "72.9 w %"

[[record]]
compound = "CCOC(=O)C1CSC2=C(CC(C)(C)C/C2=N\\c2ccc(Nc3ccccc3)cc2)N1 (stereo not shown)"
result = "60.9 w %"


* * *

Experiment: Thermal stability by Thermogravimetric Analysis (TGA)
Type: physicochemical
Conditions: 250 (° C.)
Could you label it 1.0 if measured Residual weight % at different temperatures is 70 w % or higher, and 0.0 otherwise?

[[record]]
molecule = "CCOC(=O)CNC1=C/C(=N/c2ccc(NC(=O)OC(C)(C)C)cc2)CC(C)(C)C1"
category_label = 0.0

[[record]]
molecule = "CCOC(=O)CNC1=C/C(=N/c2ccccc2)CC(C)(C)C1"
category_label = 0.0

[[record]]
molecule = "CCOC(=O)CNC1=C/C(=N/c2ccc(Nc3ccccc3)cc2)CC(C)(C)C1"
category_label = 1.0

[[record]]
molecule = "CCOC(=O)C1CSC2=C(CC(C)(C)C/C2=N\\c2ccc(OCc3ccccc3)cc2)N1 (stereo not drawn)"
category_label = 0.0

[[record]]
molecule = "CCOC(=O)C1CSC2=C(CC(C)(C)CC2Nc2ccccc2)N1 (stereo not drawn)"
category_label = 0.0

[[record]]
molecule = "CCOC(=O)C1CSC2=C(CC(C)(C)C/C2=N\\c2ccc(N3CCOCC3)cc2)N1 (stereo not drawn)"
category_label = 0.0

[[record]]
molecule = "CCCCCCCCOc1ccc(/N=C2/C=C(NC(Cc3ccccc3)C(=O)OC)CC(C)(C)C2)cc1 (stereo not drawn)"
category_label = 1.0

[[record]]
molecule = "CCOC(=O)C1CSC2=C(CC(C)(C)C/C2=N\\c2ccc(Cn3cncn3)cc2)N1 (stereo not drawn)"
category_label = 1.0


* * *

Test: Thermal stability by Thermogravimetric Analysis (TGA)
Format: physicochemical
Conditions: 100 (° C.)
value.type: Residual weight % at different temperatures (w %)

[[record]]
compound = "CCOC(=O)C1CSC2=C(CC(C)(C)C/C2=N\\c2ccc(N3CCOCC3)cc2)N1 (stereo not shown) [Formula 62]"
quantitative_result = 94.5

[[record]]
compound = "CCOC(=O)CNC1=C/C(=N/c2ccc(C(C)=O)cc2)CC(C)(C)C1 [Formula 51]"
quantitative_result = 99.5

[[record]]
compound = "CCOC(=O)CNC1=C/C(=N/c2ccc(N3CCOCC3)cc2)CC(C)(C)C1 [Formula 48]"
quantitative_result = 99.2

[[record]]
compound = "COC(=O)C(Cc1ccccc1)NC1=C/C(=N/c2ccc(OC)cc2)CC(C)(C)C1 (stereo not shown) [Formula 68]"
quantitative_result = 97.9

